This collection of values is drawn from PubChem BioAssay (NCI).

# Tested on: U251 CNS
Give your call using only these classes: y for active, n for inactive

Worked examples, 3 compounds total:
query: // param item: "COc1ccc(Oc2nc3cc(N)cc(N)c3nc2-c2ccccc2)cc1" ; yields the recorded call
result: n

query: // param item: "C#C[C@@]1(O)[C@@H](CO)O[C@@H](n2cc(Br)c3c(Cl)ccnc32)[C@@H]1O" ; yields the recorded call
result: n

query: // param item: "CNC(=O)ON(C(C)=O)C(=O)NC" ; yields the recorded call
result: n

Others:
query: // param item: COc1cc2c(cc1OC)C(C(CCCCCC(CCC(C)C)C1NCCc3cc(OC)c(OC)cc31)CCC(C)C)NCC2 (centres undefined) ; yields the recorded call
result: y

###

# Tested on: SNB-75 CNS
# methodDescription: NCI tumour cell line growth inhibition, 48 h; in the data active = GI50 below about 0.43 µM; inactive = the rest
Give your call using only these classes: active, inactive

query: // param item: "Cn1c(CCCC(=O)O)nc2cc(N(CCCl)CCCl)ccc21" ; yields the recorded call
result: inactive

Others:
query: // param item: "COc1cc(-c2nn(-c3ccc(NC(=O)Nc4cc(C(F)(F)F)cc(C(F)(F)F)c4)cc3)cc2-c2ccncc2)ccc1Cl" ; yields the recorded call
result: inactive

query: // param item: "CC1=CC(=O)N(c2cccc3c(N4C(=O)C=C(C)C4=O)cccc23)C1=O" ; yields the recorded call
result: inactive

###

Examples of compounds with documented TGI follow.
# System: CAKI-1 renal
# methodDescription: NCI tumour cell line growth inhibition, 48 h
Quick reminder: number only, in µM, skip the unit.

query: What does the data say about its TGI? Entry: Cc1ccc(N2C(=O)C3c4[nH]c5ccc(C)cc5c4C4CCC(C(C)(C)C)CC4C3C2=O)cc1 (centres undefined)
result: 45.3

Others:
query: What does the data say about its TGI? Entry: "COc1ccc(OC)c(Nc2nc3nonc3nc2Nc2cccc(Br)c2)c1"
result: 15.2

query: What does the data say about its TGI? Entry: C=C(Cl)/C(=C\Cl)CCC(Cl)C(C)C (centres undefined) (tested in a mixture with another compound)
result: 32.2

query: What does the data say about its TGI? Entry: "O=C(Nc1nc(-c2ccc(Cl)cc2)cs1)c1cc(O)c(O)c(O)c1"
result: 660

###

Examples of compounds with documented GI50 follow.
# Test system: NCI/ADR-RES ovarian
# methodDescription: NCI tumour cell line growth inhibition, 48 h

// below: answered compounds
query: What does the data say about its GI50? Entry: "CCc1nc(C)cn1C(=O)OCc1nc2nc(Cl)nc(N3CCOCC3)c2[nH]1"
result: 2.64 µM

query: What does the data say about its GI50? Entry: "Nc1[nH]nc2nc(-c3cc(Cl)ccc3Cl)cc(-c3ccc(F)cc3)c12"
result: 23 µM

query: What does the data say about its GI50? Entry: "CCOc1cc(-c2nncn2C)ccc1Nc1ncc2cc(C)nc(NCC(C)(C)C)c2n1"
result: 1.06 µM

query: What does the data say about its GI50? Entry: COC(=O)C1C(C(=O)O)C2(c3ccccc3)C(=O)C1(c1ccccc1)C(c1ccccc1)=C2c1ccccc1 (configuration not stated)
result: 18.4 µM

Others:
query: What does the data say about its GI50? Entry: "COC(=O)[C@H](Cc1cn(C)cn1)NC(=O)[C@H](CC(=O)OCc1ccccc1)NC(=O)Nc1cc(C(F)(F)F)cc(C(F)(F)F)c1"
result: 17.3 µM

query: What does the data say about its GI50? Entry: "CC[C@@H](C)/C=C(C)/C=C/C(=O)c1c(O)c(-c2ccc(OC(=O)[C@@]34CC[C@@](C)(C(=O)O3)C4(C)C)cc2)cn(O)c1=O"
result: 1.46 µM

query: What does the data say about its GI50? Entry: "CN(C)c1ccc(/C=C(\C#N)c2cc3ccccc3[nH]2)cc1"
result: 0.49 µM

query: What does the data say about its GI50? Entry: "O=C1C=C(NCCO)c2nccc3c2c1nc1ccccc13"
result: 32 µM

query: What does the data say about its GI50? Entry: "CN1CCC2(CC1)N=C(SCC(=O)Nc1cnc3ccccc3c1)C(c1ccc(Br)cc1)=N2"
result: 2.27 µM

query: What does the data say about its GI50? Entry: "Oc1ccc2c(=S)cc(-c3ccc(Br)cc3)oc2c1O"
result: 1.43 µM

query: What does the data say about its GI50? Entry: "O=C(Nc1ccncc1)C(=O)c1cn(S(=O)(=O)c2cccc(Cl)c2)c2ccccc12"
result: 2.86 µM

###

Examples of compounds with documented log10 TGI follow.
# System: OVCAR-4 ovarian
# methodDescription: NCI tumour cell line growth inhibition, 48 h
Would you kindly interpret these values as log10 of TGI expressed in µM?

query: What does the data say about its log10 TGI? Entry: "O=C(/C=C/c1ccc(Cl)c(Cl)c1)c1ccccc1Cl"
result: 1.45

query: What does the data say about its log10 TGI? Entry: "C[C@@H]1S[C@H](c2c(F)cccc2Cl)n2c1nc1ccccc12"
result: 1.57

query: What does the data say about its log10 TGI? Entry: "CC1(C)Cc2c(sc3[nH]c(=S)[nH]c(=S)c23)CS1"
result: 1.82

query: What does the data say about its log10 TGI? Entry: "O=C(Nc1nc(-c2ccc(Cl)cc2)cs1)c1cc(O)c(O)c(O)c1"
result: 3.40

query: What does the data say about its log10 TGI? Entry: "Clc1sc(Cl)c2c1[C@H](Cl)C[C@@H]2Cl"
result: 1.72

Others:
query: What does the data say about its log10 TGI? Entry: CCOC(=O)C1=C(C)N(c2ccc(Cl)cc2)C2(O)C=CC(=O)C3=C(O)c4ccccc4C(=O)C312 (stereo not given)
result: 0.92

###

# System: SK-OV-3 ovarian
# methodDescription: NCI tumour cell line growth inhibition, 48 h
endpoint: TGI

// below: answered compounds
query: What does the data say about its TGI? Entry: C/C=C(\N=C=S)C(=O)OC1C(COC(C)=O)OC([C@]2(O)CC(=O)C(=N)C(C(=O)O)=C2O)C(O)C1OC1CC(OC)C(O)([C@@H](C)OC(=O)[C@@H](C)CC)C(C)O1 (some centres undefined)
result: 52 µM

query: What does the data say about its TGI? Entry: "O=C(Sc1c(-c2ccccc2)c(=O)n(-c2ccccc2)c(=S)n1-c1ccccc1)c1ccccc1"
result: > 100 µM

query: What does the data say about its TGI? Entry: "Cc1ccc2[nH]c3c(c(=O)n(C)c(=O)n3C)c2c1"
result: > 100 µM

Others:
query: What does the data say about its TGI? Entry: "CC(=O)[CH-]C(=O)c1ccccc1.CC(=O)[CH-]C(=O)c1ccccc1.Cl.[O-]c1ccnc2ccccc12.[O-]c1ccnc2ccccc12.[Ti+4]"
result: > 100 µM

###

# Tested on: NCI-H460 lung
# methodDescription: NCI tumour cell line growth inhibition, 48 h
endpoint: TGI

// below: answered molecules
query: What does the data say about its TGI? Entry: "NS(=O)(=O)c1ccc(N=Nc2ccc[nH]c2=O)cc1"
result: > 100 µM

query: What does the data say about its TGI? Entry: "O=C(c1cscc1CCc1ccccc1)c1cscc1CCc1ccccc1"
result: > 100 µM

query: What does the data say about its TGI? Entry: "COC(=O)[C@@H]1C[C@@H](O)CN1C(=O)c1ccc([N+](=O)[O-])cc1[N+](=O)[O-]"
result: > 100 µM

query: What does the data say about its TGI? Entry: "C/C(=C\COP(=O)(O)OP(=O)(O)O)CCCCCCOCc1ccccc1"
result: > 100 µM

query: What does the data say about its TGI? Entry: "CC(=O)Nc1cc(Cl)cc(Cl)c1O"
result: > 100 µM

Next:
query: What does the data say about its TGI? Entry: "O=C1C=C(NCCO)c2nccc3c2c1nc1ccccc13"
result: 40.9 µM

###

# System: MALME-3M melanoma
# methodDescription: NCI tumour cell line growth inhibition, 48 h
Examples of compounds with documented TGI follow.

query: What does the data say about its TGI? Entry: CC1OC(n2cc(C(F)(F)F)c(=O)[nH]c2=O)C=CC1=O (stereo unspecified)
result: 34.2 µM

query: What does the data say about its TGI? Entry: C=C(C)C1CC[C@@](C)(O)[C@H](C#N)C1 (stereo partly specified)
result: > 100 µM

query: What does the data say about its TGI? Entry: "c1ccc2sc(SSSc3nc4ccccc4s3)nc2c1"
result: > 100 µM

query: What does the data say about its TGI? Entry: "C[C@]12CC[C@H](O[C@@H]3O[C@H](CO[C@@H]4O[C@H](CO)[C@@H](O)[C@H](O)[C@H]4O)[C@@H](O)[C@H](O)[C@H]3O)C[C@@H]1CC[C@@H]1[C@@H]2CC[C@]2(C)[C@@H](C3=CC(=O)OC3)CC[C@]12O"
result: 38.1 µM

Others:
query: What does the data say about its TGI? Entry: "COc1ccc(Oc2nc3cc(N)cc(N)c3nc2-c2ccccc2)cc1"
result: > 100 µM

query: What does the data say about its TGI? Entry: "N#Cc1c2ccccc2c(Cc2ccc3c(c2)OCCOCCOCCOCCOCCO3)c2ccccc12"
result: 20.3 µM
